Tested on: Pseudomonas aeruginosa PA14 dppBCDF deletion mutant
ASSAY_NOTES: respiration area under curve with compound as sole nitrogen source, 24 h (OmniLog AUC (arbitrary units)); higher = more respiration / better utilisation as nitrogen source, active = 2000 or more; extreme values may be limits of the assay
Assign class by respiration area under curve: not lower than 1000 means Yes; lower than 1000 means No.

INSERT INTO results (compound, class_assignment) VALUES
  ('CSCC[C@H](N)C(=O)N[C@@H](Cc1ccc(O)cc1)C(=O)O (plate: PM8)', 'No'),
  ('CC(C)C[C@@H](N)C(=O)N[C@@H](Cc1ccc(O)cc1)C(=O)O (plate: PM8)', 'No'),
  ('C[C@H](NC(=O)CNC(=O)CN)C(=O)O (plate: PM8)', 'No'),
  ('C[C@H](NC(=O)CN)C(=O)O (plate: PM6)', 'No'),
  ('CC(C)[C@H](NC(=O)[C@@H](N)CC(N)=O)C(=O)O (plate: PM6)', 'Yes'),
  ('O=C(O)[C@H](Cc1ccc(O)cc1)NC(=O)[C@@H]1CCCN1 (plate: PM7)', 'Yes'),
  ('C[C@H](NC(=O)[C@@H](N)CO)C(=O)O (plate: PM7)', 'Yes'),
  ('C[C@H](NC(=O)[C@@H]1CCCN1)C(=O)O (plate: PM7)', 'No'),
  ('CC(C)[C@H](N)C(=O)N[C@@H](C)C(=O)O (plate: PM8)', 'No'),
  ('NC(=O)CC[C@H](NC(=O)[C@@H](N)CO)C(=O)O (plate: PM8)', 'No'),
  ('CSCC[C@H](N)C(=O)N[C@H](C(=O)O)C(C)C (plate: PM7)', 'Yes'),
  ('N[C@@H](CC(=O)O)C(=O)NCC(=O)O (plate: PM8)', 'No'),
  ('N[C@@H](CO)C(=O)N1CCC[C@H]1C(=O)O (plate: PM7)', 'No'),
  ('NC(N)=NCCC[C@H](N)C(=O)N[C@@H](Cc1ccc(O)cc1)C(=O)O (plate: PM6)', 'Yes'),
  ('CSCC[C@H](N)C(=O)N[C@@H](CCC(N)=O)C(=O)O (plate: PM7)', 'Yes'),
  ('CCC(C)C(N)C(=O)NC(CC(N)=O)C(=O)O (stereo unspecified) (plate: PM8)', 'No'),
  ('NC(N)=NCCC[C@H](NC(=O)[C@@H](N)CCCN=C(N)N)C(=O)O (plate: PM6)', 'Yes'),
  ('CC(C)[C@H](NC(=O)[C@@H](N)CO)C(=O)O (plate: PM7)', 'Yes'),
  ('CSCCC(NC(=O)C(N)C(C)C)C(=O)O (stereo unspecified) (plate: PM8)', 'No'),
  ('CC(C)[C@H](N)C(=O)N[C@@H](Cc1ccc(O)cc1)C(=O)O (plate: PM7)', 'Yes'),
  ('CSCCC(NC(=O)C(N)CC(C)C)C(=O)O (stereo unspecified) (plate: PM6)', 'No');
